biological target: ligand binding domain of human RORγ (A262-S507) (Homo sapiens, UniProt P51449); construct: made in house; host or cells: E. coli; assay: General RORγ SPA binding assay (competition with [3H]25-hydroxycholesterol); details: RORγ SPA binding assay, inhibition of [3H]25-hydroxycholesterol binding; read-out: IC50
pIC50 values, listed per item
In plain terms, pIC50 is the concentration in mol/L turned into minus its base-10 logarithm.

Cc1cc(C)cc(COC(C)(COCC(O)CO)c2cnc(C)nc2C2CCN(C(=O)Cc3c(F)cccc3F)CC2)c1 (centres unmarked) | 8.21
CSc1ncc(C(=O)COc2ccnc(C(F)(F)F)n2)c(C2CCN(C(=O)Nc3c(F)cccc3F)CC2)n1 | 7.73
Cc1ncc(C(=O)NC(CO)c2cccc(Cl)c2)c(C2CCN(C(=O)Cc3c(F)cccc3F)CC2)n1 (centres unmarked) | 5.84
Cc1ncc(C(C)(O)COc2cccc(Cl)c2)c(C2CCN(C(=O)Cc3c(F)cccc3F)CC2)n1 (centres unmarked) | 8.21
CCOc1ncc(C(=O)NCc2cccc(Cl)c2)c(C2CCN(C(=O)Cc3c(F)cccc3F)CC2)n1 | 7.80

Form field, pIC50 with ligand binding domain of human RORγ (A262-S507) (Homo sapiens, UniProt P51449), item Cc1cc(C)cc(CNC(=O)c2cnc(C)nc2C2C=CN(C(=O)Cc3c(F)cccc3F)CC2)c1 (centres unmarked) : 8.52

Query Cc1ncc(C(=O)NCc2ccccc2)c(C2CCN(C(=O)Cc3c(F)cccc3F)CC2)n1 on ligand binding domain of human RORγ (A262-S507) (Homo sapiens, UniProt P51449); pIC50 returned: 6.84

====

Attribute: pIC50
target: ligand binding domain of human RORγ (A262-S507) (Homo sapiens, UniProt P51449); construct: made in house; host or cells: E. coli; experiment: General RORγ SPA binding assay (competition with [3H]25-hydroxycholesterol); settings: RORγ SPA binding assay, inhibition of [3H]25-hydroxycholesterol binding; read-out: IC50
Reminder that pIC50 means the negative base-10 logarithm of the concentration expressed in mol/L.

C/C(=N\Oc1ccnc(C#N)c1)c1cnc(C)nc1C1CCN(C(=O)Cc2c(F)cccc2F)CC1 | 8.33

Recorded pIC50 (compound Cc1nc(C)c(-c2nnc(-c3ccnc(C(F)(F)F)n3)o2)c(C2CCN(C(=O)Cc3c(F)cccc3F)CC2)n1 ): 8.20

The value of pIC50 measured for the compound Cc1cc(C)cc(COCc2cnc(C)nc2C2CCN(C(=O)Cc3c(F)cccc3F)CC2)c1 turned out to be 7.10

Consider CC(C)c1ncc(C(=O)NCc2ccc(Cl)c(Cl)c2)c(C2CCN(C(=O)Cc3ccccc3F)CC2)n1 . Its measured pIC50 is 5.48

====

// reported pIC50 for each item listed
Target: ligand binding domain of human RORγ (A262-S507) (Homo sapiens)
Construct: made in house; host or cells: E. coli
Sequence (P51449 262-507): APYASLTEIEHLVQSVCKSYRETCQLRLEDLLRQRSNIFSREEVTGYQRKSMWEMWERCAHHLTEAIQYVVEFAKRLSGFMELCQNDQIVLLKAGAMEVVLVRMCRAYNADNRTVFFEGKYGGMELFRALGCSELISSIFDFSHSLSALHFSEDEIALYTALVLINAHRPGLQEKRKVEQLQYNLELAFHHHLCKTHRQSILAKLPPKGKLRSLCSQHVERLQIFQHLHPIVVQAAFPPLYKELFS
Experiment: General RORγ SPA binding assay (competition with [3H]25-hydroxycholesterol)
Conditions: RORγ SPA binding assay, inhibition of [3H]25-hydroxycholesterol binding; read-out: IC50
FYI, pIC50 means -log10 of a concentration in mol per litre.

Cc1nc(N)nc(C2CCN(C(=O)Nc3c(F)cccc3F)CC2)c1C(=O)COc1cccc(C(F)(F)F)n1 | 8.55
Cc1ncc(C(O)(CO)COc2cccc(C(F)(F)F)n2)c(C2CCN(C(=O)Nc3c(F)cccc3F)CC2)n1 (stereo not shown) | 8.24
Cc1cc(C)cc(CNC(=O)c2cnc(C)nc2C2CCN(C(=O)Cc3ccccc3C)CC2)c1 | 7.31
Cc1ncc(C(C)(O)CNc2cccc(C(F)(F)F)n2)c(C2CCN(C(=O)Nc3c(F)cccc3F)CC2)n1 (stereo not shown) | 7.91
C/C(=N\Oc1ccnc(C(F)(F)F)c1)c1cnc(N)nc1C1CCN(C(=O)Nc2c(F)cccc2F)CC1 | 7.45
C/C(=N\Oc1ccnc(C(F)(F)F)c1)c1cnc(C)nc1C1CCN(C(=O)Cc2c(F)cccc2F)CC1(F)F (stereo not shown) | 7.90
NCCNc1ncc(C(=O)NCc2cccc(Cl)c2)c(C2CCN(C(=O)Cc3c(F)cccc3F)CC2)n1 | 6.69
Cc1ncc(/C(CO)=N/Oc2cccc(C(F)(F)F)c2)c(C2CCN(C(=O)Cc3c(F)cccc3F)CC2)n1 | 6.16

// pIC50 lookup, compound = CC(=O)NCC(O)(COc1cccc(C(F)(F)F)n1)c1cnc(C)nc1C1CCN(C(=O)Oc2ccc(F)cc2)CC1 (stereo not shown) , result: 7.41

Measured pIC50, Nc1ncc(C(F)(F)COc2ccnc(C(F)(F)F)n2)c(C2CCN(C(=O)Nc3c(F)cccc3F)CC2)n1 : 8.21

Record summary for Cc1ncc(C(=O)NCc2cc(C)n(C)n2)c(C2CCN(C(=O)Cc3c(F)cccc3F)CC2)n1 : reported pIC50 = 5.75

Please fill in: pIC50 reported for C/C(=N\Oc1cc(F)ccc1C)c1cnc(C)nc1C1CCN(C(=O)Cc2c(F)cccc2F)CC1 = 8.03

====

biological target: ligand binding domain of human RORγ (A262-S507) (Homo sapiens, UniProt P51449); construct: made in house; host or cells: E. coli; experiment: General RORγ SPA binding assay (competition with [3H]25-hydroxycholesterol); conditions: RORγ SPA binding assay, inhibition of [3H]25-hydroxycholesterol binding; read-out: IC50
pIC50: −log10 of the molar value.
Threshold rule: pIC50 greater than or equal to 8 is met; below that, not met.

Some solved entries appear below for comparison.
Cc1nc(C)c(-c2nnc(-c3cccc(C(F)(F)F)n3)o2)c(C2CCN(C(=O)Cc3c(F)cccc3F)CC2)n1 | met
Cc1cc(C)cc(C/C=C\c2cnc(C)nc2C2CCN(C(=O)Cc3c(F)cccc3F)CC2)c1 | not met
Cc1nc(C)c(-c2nc(-c3cccc(C(F)(F)F)c3)no2)c(C2CCN(C(=O)c3c(F)cccc3F)CC2)n1 | not met
Cc1cc(C)cc(CNC(=O)c2cnc(C)nc2C2CCN(C(=O)Cc3cc(F)cc(F)c3)CC2)c1 | not met
Cc1ncc(C(=O)NOc2cccc(OC(F)(F)F)c2)c(C2CCN(C(=O)Cc3c(F)cccc3F)CC2)n1 | not met

Hi, just wondering whether Cc1nc(C)c(-c2nnc(-c3ccnc(C(F)(F)F)n3)o2)c(C2CCN(C(=O)[C@H](C)c3c(F)cccc3F)CC2)n1 shows pIC50 of 8 or higher.
not met

Tell me whether pIC50 is at least 8 here: Cc1ncc(C2(COc3cccc(C(F)(F)F)n3)CCO2)c(C2CCN(C(=O)Nc3c(F)cccc3F)CC2)n1 (centres unmarked)
met

====

Biological target: ligand binding domain of human RORγ (A262-S507) (Homo sapiens)
Construct: made in house; host or cells: E. coli
Assay: General RORγ SPA binding assay (competition with [3H]25-hydroxycholesterol)
Settings: RORγ SPA binding assay, inhibition of [3H]25-hydroxycholesterol binding; read-out: IC50
Experimental: Example 2 General RORγ SPA Binding Assay The binding of potential ligands to RORγ is measured by competition with [^3H]25-hydroxycholesterol using a scintillation proximity assay (SPA) binding assay. […] The reaction is read on a MicroBeta Trilux scintillation plate reader (Perkin Elmer). IC50 values are determined from the percentage inhibition of [^3H]25-hydroxycholesterol binding.
pIC50: −log10 of the molar value.
Assign criterion met whenever pIC50 does not fall below 8; assign criterion not met whenever it does.

Cc1ncc(C(=O)NCc2cccc(C(F)(F)F)n2)c(C2CCN(C(=O)Cc3c(F)cccc3F)CC2)n1 | criterion met
Cc1ncc(C(C)(C)CNc2cccc(C(F)(F)F)n2)c(C2CCN(C(=O)Cc3c(F)cccc3F)CC2)n1 | criterion met
Cc1cc(C)cc(CNC(=O)c2cnc(C)nc2C2CCN(CCc3c(F)cccc3F)CC2)c1 | criterion not met

Confirm if pIC50 reported for the molecule Cc1ncc(C(=O)NOc2cc(F)cc(Cl)c2)c(C2CCN(C(=O)Cc3c(F)cccc3F)CC2)n1 is 8 or above.
criterion not met

====

Target: ligand binding domain of human RORγ (A262-S507) (Homo sapiens, UniProt P51449)
Construct: made in house; host or cells: E. coli
Sequence (P51449 262-507): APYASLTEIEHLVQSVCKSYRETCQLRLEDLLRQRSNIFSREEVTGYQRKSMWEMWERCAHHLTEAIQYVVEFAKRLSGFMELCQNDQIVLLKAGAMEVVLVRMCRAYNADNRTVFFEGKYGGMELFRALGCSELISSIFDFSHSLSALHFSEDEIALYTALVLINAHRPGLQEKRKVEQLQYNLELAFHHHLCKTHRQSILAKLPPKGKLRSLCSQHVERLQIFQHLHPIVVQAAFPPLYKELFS
Experiment: General RORγ SPA binding assay (competition with [3H]25-hydroxycholesterol)
Settings: RORγ SPA binding assay, inhibition of [3H]25-hydroxycholesterol binding; read-out: IC50
parameter measured: pIC50
FYI, pIC50 means -log10 of a concentration in mol per litre.

COCC(C)(OCc1cc(C)cc(C)c1)c1cnc(C)nc1C1CCN(C(=O)Cc2c(F)cccc2F)CC1 (stereo not drawn) [Compound E1] | 8.20
Cc1cc(C)cc(CNC(=O)c2cnc(C)nc2C2CCN(C(=O)C3(c4ccccc4F)CCCC3)CC2)c1 | 5.79
C/C(=N\Oc1cccc(C(F)(F)F)c1)c1cnc(N)nc1C1CCN(C(=O)Nc2c(F)cccc2F)CC1 | 8.07
CC(O)(COc1ccnc(C(F)(F)F)n1)c1cnc(N)nc1C1CCN(C(=O)Nc2c(F)cccc2F)CC1 (stereo not drawn) | 7.84
C/C(=N\Oc1cccc(C(F)(F)F)c1)c1c(C)nc(C)nc1C1CCN(C(=O)Cc2c(F)cccc2F)CC1 | 7.27

Per the record, Cc1ncc(C(O)(CCN)COc2cccc(C(F)(F)F)n2)c(C2CCN(C(=O)Nc3c(F)cccc3F)CC2)n1 (stereo not drawn) has pIC50 of 6.21

// [2H]C([2H])c1nc(C)c(-c2nnc(-c3ccnc(C(F)(F)F)n3)o2)c(C2CCN(C(=O)C([2H])c3c(F)cccc3F)CC2)n1 (stereo not drawn) : pIC50 value = 7.66

Lab note: measured pIC50 of CCOCC(C)(OCc1cc(C)cc(C)c1)c1cnc(C)nc1C1CCN(C(=O)Cc2c(F)cccc2F)CC1 (stereo not drawn) [Compound E2] was 8.28

compound O=C(NCc1cccc(Cl)c1)c1cnc(O)nc1C1CCN(C(=O)Cc2c(F)cccc2F)CC1 , pIC50 observed: 6.40

Origin of measurements: patent US10035790B2
